# experimental system: G protein-activated inward rectifier potassium channel 2 (Homo sapiens) + G protein-activated inward rectifier potassium channel 1 (Homo sapiens) (UniProt P48051+P48549)
# Sequence (P48051 whole entry, looked up): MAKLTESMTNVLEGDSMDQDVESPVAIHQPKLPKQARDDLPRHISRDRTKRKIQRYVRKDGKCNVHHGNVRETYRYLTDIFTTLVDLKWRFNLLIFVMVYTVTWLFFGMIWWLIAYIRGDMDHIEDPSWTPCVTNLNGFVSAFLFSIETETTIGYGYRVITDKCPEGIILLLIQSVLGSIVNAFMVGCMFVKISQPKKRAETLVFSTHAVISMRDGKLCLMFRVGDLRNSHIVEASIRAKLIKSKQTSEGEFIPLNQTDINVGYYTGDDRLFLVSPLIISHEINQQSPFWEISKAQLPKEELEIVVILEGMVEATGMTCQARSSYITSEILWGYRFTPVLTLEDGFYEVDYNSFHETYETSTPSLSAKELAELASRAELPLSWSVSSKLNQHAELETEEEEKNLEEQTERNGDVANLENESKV
# Sequence (P48549 whole entry, looked up): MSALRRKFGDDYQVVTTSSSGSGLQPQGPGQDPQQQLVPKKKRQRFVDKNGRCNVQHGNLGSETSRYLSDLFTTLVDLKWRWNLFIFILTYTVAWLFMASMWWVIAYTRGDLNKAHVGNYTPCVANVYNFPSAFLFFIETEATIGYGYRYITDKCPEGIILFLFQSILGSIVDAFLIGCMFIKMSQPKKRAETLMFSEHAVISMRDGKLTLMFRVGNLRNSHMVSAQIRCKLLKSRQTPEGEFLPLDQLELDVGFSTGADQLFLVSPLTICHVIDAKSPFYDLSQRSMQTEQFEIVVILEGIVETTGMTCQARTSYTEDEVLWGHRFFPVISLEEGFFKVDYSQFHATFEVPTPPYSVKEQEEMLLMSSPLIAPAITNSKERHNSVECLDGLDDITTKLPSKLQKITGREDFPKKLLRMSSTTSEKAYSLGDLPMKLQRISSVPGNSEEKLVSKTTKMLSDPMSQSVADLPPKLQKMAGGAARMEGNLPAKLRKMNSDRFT
# experiment: GIRK1/2 thallium flux modulators, retest, confirmation, cell-based, HEK293 rmGlu8/hGIRK1/2, FluoZin-2 (AID 623911)
# condition context: HEK293 rmGlu8/hGIRK1/2, thallium flux FluoZin-2; actives lie on both sides; glutamate co-added at its EC20 level
Screen size: about 2,100 compounds; about 770 (37%) were called active. The list shows a part of the results.
quantity name: manual score
Lab note: jot down the number only; don't add units.

Please review the entries below; each comes with its answer.
O=S(=O)(Nc1ccccc1N1CCCCC1)c1ccc(Cl)s1: 0
O=C(NNC(=S)Nc1cccc2ccccc12)c1cccc(Br)c1: 1
O=S(=O)(Nc1cc(Cl)ccc1N1CCCCC1)c1cccs1: -1
CN=C(C)C1=C(O)C(C(=O)OC)C(C)(C)CC1=O (stereo unspecified): 0
CCCCn1c(-c2csc3c2CCC(C)C3)n[nH]c1=S (stereo unspecified): 0

Req: Return manual score for the following compound: O=C(NNC(=S)Nc1ccccc1)c1cccc(Br)c1
Resp: 0
